Molecular target: T1, hIL-17A (human, UniProt Q16552 24-155)
T1 construct: Bought protein
T1 sequence (Q16552 24-155 limits assumed): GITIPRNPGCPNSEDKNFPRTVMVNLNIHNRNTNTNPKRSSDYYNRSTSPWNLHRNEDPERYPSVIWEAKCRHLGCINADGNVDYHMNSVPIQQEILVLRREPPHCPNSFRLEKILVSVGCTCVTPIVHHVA
Experiment: ELISA on captured hIL-17A
Observation type: IL-17A binding relative to the WT (%)
Your answer should be a plain number; it is taken to be in %.

In: Specify IL-17A binding relative to the WT for V10 K109R (Fc fusion, Expressed in mammalian cells; not shown: human IgG1 engineered Fc from the mammalian expression vector) LRLLDHRAPVCSQPGLNCTVKNSTCLDDSWIHPRNLTPSSPKDLQIQLHFAHTQQGDLVPVAHIEWTLQTDASILYLEGAELSVLQLNTNERLCVRFEFLSKLRHHHRRWRFTFSHFVVDPGQEYEVTVHHLPKPIPDGDPNHQSKNFLVPDCEHPRMKVTTPCMSSGSLWDPNITVETLEAHQLRVSFTLWNESTHYQILLTSFPHMENHSCFEHMHHIPAPRPEEFHQRSNVTLTLRNLKGCCRHQVQIQPFFSSCLNDCLRHSATVSCPEMPDTPEPIPDYMPLW and stop.
Out: 80

FYI, the data here is from patent US20160376343A1.
